target: Ustilago maydis ACCase BC domain (pCS8); assay: 3H-soraphen saturation binding assay, pCS8; settings: non-linear regression fit, one site, read-out: KD of the soraphen-pCS8 interaction
metric: Kd (nM)
Give your result in nM as a bare value.

Q. Fill blank: measured Kd of the molecule CO[C@H]1CCCC[C@@H](c2ccccc2)OC(=O)[C@@H](C)[C@@]2(O)O[C@H]([C@@H](C)[C@H](O)[C@H]2OC)[C@@H](C)/C=C/[C@H]1OC is ____.
A. 1.5

----------
target: Magnaporthe grisea ACCase BC domain (pCS17), N-terminal His-tag (Pyricularia oryzae, UniProt G4N2L8)
metric: Kd (nM)
Give your result in nM as a bare value.

Q. Fill blank: measured Kd of the compound CO[C@H]1CCCC[C@@H](c2ccccc2)OC(=O)[C@@H](C)[C@@]2(O)O[C@H]([C@@H](C)[C@H](O)[C@H]2OC)[C@@H](C)/C=C/[C@H]1OC is ____.
A. 0.4

----------
molecular target: Phytophthora infestans ACCase BC domain, amino acids 1-555 (pCS15) (Phytophthora infestans)
metric: Kd
# answer = value followed by unit

Q. Fill blank: measured Kd of the compound CO[C@H]1CCCC[C@@H](c2ccccc2)OC(=O)[C@@H](C)[C@@]2(O)O[C@H]([C@@H](C)[C@H](O)[C@H]2OC)[C@@H](C)/C=C/[C@H]1OC is ____.
A. 0.4 nM

----------
biological target: full-length Ustilago ACCase (pCS11 protein), C-terminal His-tag (Mycosarcoma maydis, UniProt A0A0D1DYD5)
metric: pKi
Quick note: pKi means taking -log10 of the concentration in moles per liter.

Q. Fill blank: measured pKi of the compound CO[C@H]1CCCC[C@@H](c2ccccc2)OC(=O)[C@@H](C)[C@@]2(O)O[C@H]([C@@H](C)[C@H](O)[C@H]2OC)[C@@H](C)/C=C/[C@H]1OC [Soraphen, soraphen A] is ____.
A. 8.66
